experiment: Lipophilicity, logP of compound
Assay type: physicochemical
test_settings: octanol/water
observable: logP
Form field (numeric): enter value without unit.

molecule	logP
COc1ccc(C(c2c(-c3ccccc3)n(O)c3ccccc23)N2CCN(C)CC2)cc1 (configuration not stated)	4

In the following, a different molecule is considered.
Data request: Quick one: logP for CSc1ccc(C(Nc2ccccn2)c2c(C)[nH]c3ccccc23)cc1 (configuration not stated) ?
Data returned: 4
